- Assay System: neuronal voltage-gated, L-type (Cav1.3) α1D subunit Ca^2+ channel (Rattus norvegicus)
- Construct: KCl-induced intracellular Ca^2+ signaling in non-NGF treated PC12 cells loaded with fura-2; endogenous in cells
- Assay Notes: KCl-induced Ca^2+ signaling in fura-2 loaded PC12 cells
- Run Conditions: read-out: IC50 on L-type Ca^2+ channels
Readout Label: IC50 (µM)

INSERT INTO assay_data (smiles_str, units_text, numeric_value) VALUES
  ('CC1=C(/C=C/C(C)=C/C=C/C(C)=C/CO)C(C)(C)CCC1', 'µM', 5);

* * *

- Assay System: neuronal voltage-gated, L-type (Cav1.3) α1D subunit Ca^2+ channel (Rattus norvegicus, UniProt P27732)
- Construct: KCl-induced intracellular Ca^2+ signaling in non-NGF treated PC12 cells loaded with fura-2; endogenous in cells; host or cells: PC12 cells (non-NGF treated)
- Sequence (P27732 whole entry): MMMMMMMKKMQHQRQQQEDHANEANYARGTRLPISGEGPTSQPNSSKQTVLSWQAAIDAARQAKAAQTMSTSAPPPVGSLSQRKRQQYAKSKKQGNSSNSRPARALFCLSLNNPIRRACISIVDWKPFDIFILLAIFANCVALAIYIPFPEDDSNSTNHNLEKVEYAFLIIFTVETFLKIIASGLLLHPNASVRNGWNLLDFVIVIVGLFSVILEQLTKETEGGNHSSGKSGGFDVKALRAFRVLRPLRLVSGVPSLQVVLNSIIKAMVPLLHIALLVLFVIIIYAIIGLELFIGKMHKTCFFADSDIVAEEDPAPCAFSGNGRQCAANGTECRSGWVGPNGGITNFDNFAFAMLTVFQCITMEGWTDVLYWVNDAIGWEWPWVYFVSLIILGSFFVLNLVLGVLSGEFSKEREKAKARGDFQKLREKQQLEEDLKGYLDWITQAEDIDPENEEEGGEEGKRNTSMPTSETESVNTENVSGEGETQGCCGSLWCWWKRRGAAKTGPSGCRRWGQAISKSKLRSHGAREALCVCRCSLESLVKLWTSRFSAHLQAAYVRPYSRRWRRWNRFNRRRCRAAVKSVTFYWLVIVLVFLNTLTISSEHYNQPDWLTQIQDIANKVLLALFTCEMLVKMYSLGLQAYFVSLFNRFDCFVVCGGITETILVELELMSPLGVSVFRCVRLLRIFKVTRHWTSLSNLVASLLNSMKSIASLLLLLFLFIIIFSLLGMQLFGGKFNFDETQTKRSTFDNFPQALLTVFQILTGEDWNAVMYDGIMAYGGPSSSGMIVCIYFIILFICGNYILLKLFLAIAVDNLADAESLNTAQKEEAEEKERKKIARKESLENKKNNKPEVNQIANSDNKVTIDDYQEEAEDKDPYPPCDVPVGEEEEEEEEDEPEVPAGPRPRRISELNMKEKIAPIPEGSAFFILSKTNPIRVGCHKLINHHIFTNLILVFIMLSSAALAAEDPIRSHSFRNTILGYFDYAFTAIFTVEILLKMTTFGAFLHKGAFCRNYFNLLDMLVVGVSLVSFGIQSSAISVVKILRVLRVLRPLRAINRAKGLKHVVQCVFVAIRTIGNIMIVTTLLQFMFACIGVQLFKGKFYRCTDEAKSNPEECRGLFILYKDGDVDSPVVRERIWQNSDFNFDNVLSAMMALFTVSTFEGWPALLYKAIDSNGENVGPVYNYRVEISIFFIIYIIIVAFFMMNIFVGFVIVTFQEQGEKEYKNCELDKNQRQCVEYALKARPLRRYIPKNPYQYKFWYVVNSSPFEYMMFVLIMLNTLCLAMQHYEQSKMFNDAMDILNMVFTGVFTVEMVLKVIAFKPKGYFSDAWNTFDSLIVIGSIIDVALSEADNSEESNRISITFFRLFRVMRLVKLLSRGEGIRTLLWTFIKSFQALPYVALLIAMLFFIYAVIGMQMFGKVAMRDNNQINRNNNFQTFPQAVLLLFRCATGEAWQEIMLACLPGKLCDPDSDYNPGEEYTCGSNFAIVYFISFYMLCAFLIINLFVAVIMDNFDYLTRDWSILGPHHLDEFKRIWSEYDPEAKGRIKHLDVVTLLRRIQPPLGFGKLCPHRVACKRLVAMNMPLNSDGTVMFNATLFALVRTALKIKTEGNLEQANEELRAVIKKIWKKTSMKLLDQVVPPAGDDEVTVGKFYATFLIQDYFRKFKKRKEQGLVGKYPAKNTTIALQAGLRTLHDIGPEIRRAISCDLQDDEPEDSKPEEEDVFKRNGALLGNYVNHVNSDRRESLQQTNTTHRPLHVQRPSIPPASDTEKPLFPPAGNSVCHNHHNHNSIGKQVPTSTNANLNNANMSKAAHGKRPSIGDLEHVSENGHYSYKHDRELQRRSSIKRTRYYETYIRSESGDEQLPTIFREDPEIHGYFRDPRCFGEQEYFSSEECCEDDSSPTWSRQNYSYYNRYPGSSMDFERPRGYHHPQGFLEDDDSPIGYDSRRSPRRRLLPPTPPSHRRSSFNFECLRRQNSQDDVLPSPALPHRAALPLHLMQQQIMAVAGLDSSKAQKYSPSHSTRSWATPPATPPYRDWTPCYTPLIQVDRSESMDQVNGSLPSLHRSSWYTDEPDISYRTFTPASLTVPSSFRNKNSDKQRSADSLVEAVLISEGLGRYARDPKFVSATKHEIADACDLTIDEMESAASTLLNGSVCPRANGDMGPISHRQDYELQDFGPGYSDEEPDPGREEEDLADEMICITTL
- Sequence (P54290 25-944 partner limits assumed): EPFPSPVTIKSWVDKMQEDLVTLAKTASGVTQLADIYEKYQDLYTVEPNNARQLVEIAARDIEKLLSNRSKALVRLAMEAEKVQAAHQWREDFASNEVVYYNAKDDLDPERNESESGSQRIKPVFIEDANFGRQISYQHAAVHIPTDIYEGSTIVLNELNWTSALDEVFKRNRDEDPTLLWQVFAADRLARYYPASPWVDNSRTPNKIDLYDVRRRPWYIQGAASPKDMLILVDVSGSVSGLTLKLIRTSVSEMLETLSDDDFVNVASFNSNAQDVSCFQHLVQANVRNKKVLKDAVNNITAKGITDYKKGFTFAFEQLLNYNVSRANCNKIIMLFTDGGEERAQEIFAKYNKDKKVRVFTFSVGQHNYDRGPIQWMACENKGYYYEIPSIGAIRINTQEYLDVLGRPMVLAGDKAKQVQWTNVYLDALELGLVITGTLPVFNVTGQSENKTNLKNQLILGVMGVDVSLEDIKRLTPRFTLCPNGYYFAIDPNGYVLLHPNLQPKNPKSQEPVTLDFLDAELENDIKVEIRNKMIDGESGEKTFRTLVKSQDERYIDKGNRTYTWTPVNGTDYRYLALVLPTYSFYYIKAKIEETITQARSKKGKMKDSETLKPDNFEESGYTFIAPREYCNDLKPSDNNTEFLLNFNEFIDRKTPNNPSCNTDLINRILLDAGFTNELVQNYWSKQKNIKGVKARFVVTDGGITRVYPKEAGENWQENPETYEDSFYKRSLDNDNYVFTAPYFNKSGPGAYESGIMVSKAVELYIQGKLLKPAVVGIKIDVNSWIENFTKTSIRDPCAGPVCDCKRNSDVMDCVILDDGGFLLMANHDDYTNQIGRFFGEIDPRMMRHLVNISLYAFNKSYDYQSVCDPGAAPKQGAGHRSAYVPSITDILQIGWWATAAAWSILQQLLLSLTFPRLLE
- Sequence (P54290 945-1091 partner limits assumed): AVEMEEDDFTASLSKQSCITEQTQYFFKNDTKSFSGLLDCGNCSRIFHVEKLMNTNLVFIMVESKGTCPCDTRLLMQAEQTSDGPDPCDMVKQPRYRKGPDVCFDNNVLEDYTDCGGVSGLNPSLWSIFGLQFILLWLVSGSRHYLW
- Assay Notes: KCl-induced Ca^2+ signaling in fura-2 loaded PC12 cells
- Format: cell-based
- Run Conditions: non-NGF PC12 cells, fura-2; FIG. 1 / FIG. 3
Readout Label: activity on neuronal L-type Ca^2+ channels compared with all-trans farnesol

INSERT INTO assay_data (compound, result) VALUES
  ('CC(C)=CCC/C(C)=C/CC/C(C)=C/C(=O)O [farnesoic acid, all-trans farnesoic acid, reference compound]', 'substantially inactive'),
  ('CC(C)=CCC/C(C)=C/CC/C(C)=C/COP(=O)(O)OP(=O)(O)O [farnesyl-PP, farnesyl pyrophosphate, reference compound]', 'substantially inactive');
